study_system: ROCK1 (Homo sapiens (Human), UniProt Q13464)
Sequence (Q13464 2-1354 limits assumed): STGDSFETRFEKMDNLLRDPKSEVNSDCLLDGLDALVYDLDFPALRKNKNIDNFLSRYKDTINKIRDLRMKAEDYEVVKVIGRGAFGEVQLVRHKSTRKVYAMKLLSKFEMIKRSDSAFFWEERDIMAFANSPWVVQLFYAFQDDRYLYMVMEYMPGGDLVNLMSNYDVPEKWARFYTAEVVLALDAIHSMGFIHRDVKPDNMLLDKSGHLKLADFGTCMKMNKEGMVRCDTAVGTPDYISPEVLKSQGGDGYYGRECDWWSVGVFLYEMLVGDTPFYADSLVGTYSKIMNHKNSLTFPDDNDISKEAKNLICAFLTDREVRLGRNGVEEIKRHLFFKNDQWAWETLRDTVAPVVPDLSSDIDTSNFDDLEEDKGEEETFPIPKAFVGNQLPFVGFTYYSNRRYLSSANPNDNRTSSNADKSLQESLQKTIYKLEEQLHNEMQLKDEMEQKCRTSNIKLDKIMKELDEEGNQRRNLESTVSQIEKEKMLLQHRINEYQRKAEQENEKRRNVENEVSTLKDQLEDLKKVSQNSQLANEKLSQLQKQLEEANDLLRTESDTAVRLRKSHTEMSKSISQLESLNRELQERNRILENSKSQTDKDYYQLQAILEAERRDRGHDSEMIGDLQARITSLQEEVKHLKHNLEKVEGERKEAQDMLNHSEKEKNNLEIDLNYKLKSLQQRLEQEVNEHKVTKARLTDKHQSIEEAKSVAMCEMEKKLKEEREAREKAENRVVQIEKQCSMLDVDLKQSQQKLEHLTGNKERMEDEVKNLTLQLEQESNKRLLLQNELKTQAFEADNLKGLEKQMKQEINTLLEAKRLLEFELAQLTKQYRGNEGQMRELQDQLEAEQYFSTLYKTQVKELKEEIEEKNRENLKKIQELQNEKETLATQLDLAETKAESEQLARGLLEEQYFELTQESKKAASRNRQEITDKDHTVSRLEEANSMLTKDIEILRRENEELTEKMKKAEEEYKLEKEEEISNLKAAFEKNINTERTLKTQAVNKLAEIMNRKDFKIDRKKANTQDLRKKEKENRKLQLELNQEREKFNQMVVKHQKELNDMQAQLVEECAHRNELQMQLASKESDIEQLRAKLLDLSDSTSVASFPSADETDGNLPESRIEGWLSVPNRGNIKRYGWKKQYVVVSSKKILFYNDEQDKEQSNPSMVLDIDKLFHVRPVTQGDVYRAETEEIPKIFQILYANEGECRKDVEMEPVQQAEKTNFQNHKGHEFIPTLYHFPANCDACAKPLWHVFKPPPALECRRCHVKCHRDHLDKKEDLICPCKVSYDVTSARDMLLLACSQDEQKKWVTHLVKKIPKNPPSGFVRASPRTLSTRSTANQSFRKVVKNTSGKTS
assay_protocol: biochemical
pKi: −log10 of the molar value.
property_name: pKi

[[record]]
molecule = "c1ncc(-c2c[nH]c3nccc(OC[C@H]4CCCNC4)c23)cn1"
data_value = 7.73

[[record]]
molecule = "Fc1cncc(-c2c[nH]c3nccc(N4CCCC5(CCCCN5)C4)c23)c1 (stereo not drawn)"
data_value = 6.68

[[record]]
molecule = "Fc1ccc(-c2c[nH]c3nccc(N4CCCC5(CCCCN5)C4)c23)nc1 (stereo not drawn)"
data_value = 6.25

[[record]]
molecule = "CN[C@H]1CCCN(c2ccnc3[nH]cc(-c4nccs4)c23)C1"
data_value = 6.23

[[record]]
molecule = "c1ncc(-c2c[nH]c3nccc(N4CCC[C@@]5(CCCCN5)C4)c23)cn1"
data_value = 6.71

[[record]]
molecule = "c1ncc(-c2c[nH]c3nccc(OC[C@@H]4CCCNC4)c23)cn1"
data_value = 7.38

[[record]]
molecule = "OC1CCN([C@H]2CCCN(c3ccnc4[nH]cc(-c5cncnc5)c34)C2)CC1"
data_value = 5.30

[[record]]
molecule = "c1ncc(-c2c[nH]c3nccc(N[C@H]4CCCNC4)c23)cn1"
data_value = 4.30

[[record]]
molecule = "N#Cc1c[nH]c2nccc(N3CCC[C@@H]3CO)c12"
data_value = 6.99


* * *

study_system: MRCKα (Homo sapiens (Human))
Sequence (Q5VT25 whole entry): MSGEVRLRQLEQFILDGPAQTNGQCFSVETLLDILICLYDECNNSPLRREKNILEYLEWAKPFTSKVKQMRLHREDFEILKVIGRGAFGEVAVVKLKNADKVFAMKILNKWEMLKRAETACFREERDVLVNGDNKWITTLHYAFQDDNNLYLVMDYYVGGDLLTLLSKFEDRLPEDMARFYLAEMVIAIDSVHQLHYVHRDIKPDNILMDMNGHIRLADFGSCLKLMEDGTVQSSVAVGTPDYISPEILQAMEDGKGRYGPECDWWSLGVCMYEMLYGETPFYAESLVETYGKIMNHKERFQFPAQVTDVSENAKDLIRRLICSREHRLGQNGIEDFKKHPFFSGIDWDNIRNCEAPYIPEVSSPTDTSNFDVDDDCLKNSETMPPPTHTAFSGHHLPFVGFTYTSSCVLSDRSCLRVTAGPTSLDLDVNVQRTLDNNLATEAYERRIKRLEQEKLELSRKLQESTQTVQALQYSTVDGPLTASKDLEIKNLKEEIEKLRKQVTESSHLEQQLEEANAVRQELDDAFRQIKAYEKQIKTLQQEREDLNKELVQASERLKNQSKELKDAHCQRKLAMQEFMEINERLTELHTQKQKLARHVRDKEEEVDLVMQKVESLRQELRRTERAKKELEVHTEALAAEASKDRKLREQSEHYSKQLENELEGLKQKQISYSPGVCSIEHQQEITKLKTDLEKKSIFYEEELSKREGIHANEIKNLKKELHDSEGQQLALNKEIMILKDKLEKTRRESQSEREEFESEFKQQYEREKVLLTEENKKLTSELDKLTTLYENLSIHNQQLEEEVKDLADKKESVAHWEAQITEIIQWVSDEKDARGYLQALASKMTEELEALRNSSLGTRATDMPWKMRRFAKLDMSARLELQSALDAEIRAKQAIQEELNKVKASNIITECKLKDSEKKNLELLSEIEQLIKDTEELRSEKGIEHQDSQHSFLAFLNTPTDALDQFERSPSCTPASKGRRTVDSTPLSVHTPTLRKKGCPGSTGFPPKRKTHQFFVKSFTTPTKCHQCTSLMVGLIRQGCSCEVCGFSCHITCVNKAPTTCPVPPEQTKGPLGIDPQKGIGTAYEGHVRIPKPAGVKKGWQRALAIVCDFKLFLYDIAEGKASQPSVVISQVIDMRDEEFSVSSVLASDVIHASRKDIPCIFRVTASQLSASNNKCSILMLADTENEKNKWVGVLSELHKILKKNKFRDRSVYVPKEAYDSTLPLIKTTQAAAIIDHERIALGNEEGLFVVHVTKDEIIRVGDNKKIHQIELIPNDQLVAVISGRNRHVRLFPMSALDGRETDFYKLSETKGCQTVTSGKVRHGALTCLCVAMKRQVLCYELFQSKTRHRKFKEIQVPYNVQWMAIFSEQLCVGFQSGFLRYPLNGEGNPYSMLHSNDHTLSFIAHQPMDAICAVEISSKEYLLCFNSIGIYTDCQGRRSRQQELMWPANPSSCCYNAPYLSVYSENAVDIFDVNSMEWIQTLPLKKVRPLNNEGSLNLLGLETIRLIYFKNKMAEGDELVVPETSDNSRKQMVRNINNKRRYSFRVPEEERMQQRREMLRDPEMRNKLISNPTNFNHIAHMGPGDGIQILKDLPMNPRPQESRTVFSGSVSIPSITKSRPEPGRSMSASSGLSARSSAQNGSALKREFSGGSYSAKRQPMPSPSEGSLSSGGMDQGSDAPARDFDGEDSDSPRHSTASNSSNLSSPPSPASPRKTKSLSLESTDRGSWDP
assay_protocol: MRCKα kinase assay (IMAP fluorescence polarization)
Format: biochemical
property_name: Ki (nM)

[[record]]
molecule = "c1csc(-c2c[nH]c3nccc(N4CC[C@@]5(CCCCN5)C4)c23)n1"
data_value = 0.0149

[[record]]
molecule = "c1csc(-c2c[nH]c3nccc(N4CC[C@@]5(CCCN5)C4)c23)n1"
data_value = 0.19

[[record]]
molecule = "c1cc(N2CCC3(CCCN3)C2)c2c(-c3ccsn3)c[nH]c2n1 (stereo not shown)"
data_value = 0.207

[[record]]
molecule = "c1cc(N2CCC3(CCCCN3)C2)c2c(-c3ncsn3)c[nH]c2n1 (stereo not shown)"
data_value = 0.0518


* * *

Below is a list of entries, each paired with its recorded log10(Ki) value.
study_system: MRCKβ (Homo sapiens (Human))
assay_protocol: MRCKβ kinase assay (IMAP fluorescence polarization)
Format: biochemical
condition_set: 1 μM ATP; read-out: MRCK-B Average Ki
property_name: log10(Ki) (log10 of the value in nM)

[[record]]
compound = "CN[C@H]1CCCN(c2ccnc3[nH]cc(-c4nccs4)c23)C1"
data_value = -0.52

[[record]]
compound = "c1cc(-c2c[nH]c3nccc(N4CCCCC4)c23)ncn1"
data_value = 1.19

[[record]]
compound = "Cn1cc(-c2c[nH]c3nccc(N4CCCCC4)c23)cn1"
data_value = 1.58

[[record]]
compound = "c1cc(-c2c[nH]c3nccc(N4CCC[C@@]5(CCCCN5)C4)c23)cnn1"
data_value = -1.59

[[record]]
compound = "CN1CC[C@H](COc2ccnc3[nH]cc(-c4cncnc4)c23)C1"
data_value = 1.06

[[record]]
compound = "c1cncc(-c2c[nH]c3nccc(N4CCCCC4)c23)c1"
data_value = 1.27

[[record]]
compound = "CN1CCC[C@H](COc2ccnc3[nH]cc(-c4cncnc4)c23)C1"
data_value = 0.70

[[record]]
compound = "c1cc(-c2c[nH]c3nccc(N4CCCC5(CCCCN5)C4)c23)ncn1 (stereo not drawn)"
data_value = -1.19

[[record]]
compound = "c1ccc(-c2c[nH]c3nccc(N4CCCCC4)c23)nc1"
data_value = 2.13

